# study-system: chick N-cadherin (Gallus gallus, UniProt P10288)
# Construct: expressed in transfected cells; host or cells: 3T3 fibroblasts
# Sequence (P10288 165-912): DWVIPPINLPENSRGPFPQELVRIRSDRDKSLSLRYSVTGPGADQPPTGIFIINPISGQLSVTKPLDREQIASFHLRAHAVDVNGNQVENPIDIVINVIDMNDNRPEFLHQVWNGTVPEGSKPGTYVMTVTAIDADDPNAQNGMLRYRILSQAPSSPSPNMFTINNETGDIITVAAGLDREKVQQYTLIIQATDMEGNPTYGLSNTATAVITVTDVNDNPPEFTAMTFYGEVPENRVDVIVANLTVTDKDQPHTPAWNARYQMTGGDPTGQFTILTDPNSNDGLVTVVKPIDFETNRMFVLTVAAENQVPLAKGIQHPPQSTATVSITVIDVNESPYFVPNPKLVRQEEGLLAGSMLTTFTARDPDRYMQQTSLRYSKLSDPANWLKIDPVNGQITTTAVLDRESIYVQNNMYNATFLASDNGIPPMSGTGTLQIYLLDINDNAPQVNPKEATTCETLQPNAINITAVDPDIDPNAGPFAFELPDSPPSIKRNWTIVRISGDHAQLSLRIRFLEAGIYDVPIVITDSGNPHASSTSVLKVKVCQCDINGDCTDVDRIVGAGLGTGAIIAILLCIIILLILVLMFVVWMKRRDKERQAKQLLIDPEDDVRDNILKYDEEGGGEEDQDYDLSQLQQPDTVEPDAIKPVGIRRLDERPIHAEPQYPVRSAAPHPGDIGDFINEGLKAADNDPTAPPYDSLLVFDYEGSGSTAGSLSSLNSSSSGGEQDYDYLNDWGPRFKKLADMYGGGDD
# test-protocol: N-cadherin dependent neurite outgrowth of rat cerebellar neurons on N-cadherin expressing 3T3 cells (Example 14)
# Type: cell-based
# condition-details: NIH3T3; 250 μg/mL, 16-18 hours
Positions of bridges follow the written chain, without caps; N, C: chain ends. Residues, ends and D or L forms follow the SMILES beside them.
measured-endpoint: inhibition at 250 µg/mL (%)
# output: bare number, implied unit %

The compound listed as CC(C)[C@@H]1NC(=O)CNC(=O)[C@H](Cc2c[nH]cn2)NC(=O)[C@H](C)NC(=O)[C@@H](N)CSSC[C@@H](C(N)=O)NC(=O)[C@H](CC(=O)O)NC1=O [H-CAHGVDC-NH2, reference compound] (H-CAHGVDC-NH2; disulfide 1-7) shows inhibition at 250 µg/mL equal to 5.7

get_value(item= CC(=O)N[C@H]1CSSC[C@@H](C(N)=O)NC(=O)[C@H](CO)NC(=O)[C@H](CO)NC(=O)[C@H](C(C)C)NC(=O)CNC(=O)[C@H](Cc2c[nH]cn2)NC(=O)[C@H](CO)NC1=O [reference compound] (Ac-CSHGVSSC-NH2; disulfide 1-8) , readout=inhibition at 250 µg/mL) returns -5.6

Reported inhibition at 250 µg/mL ( CC[C@H](C)[C@@H]1NC(=O)[C@H](CC(=O)O)NC(=O)[C@H](C(C)C)NC(=O)CNC(=O)[C@H](Cc2c[nH]cn2)NC(=O)[C@H](C)NC(=O)[C@@H](NC(C)=O)CSSC[C@@H](C(N)=O)NC1=O [reference compound] (Ac-CAHGVDIC-NH2; disulfide 1-8) ) = 4.8

The recorded inhibition at 250 µg/mL for CC(C)[C@@H]1NC(=O)[C@H](C)NC(=O)[C@H](Cc2c[nH]cn2)NC(=O)[C@H](C)NC(=O)[C@@H](N)CSSC[C@@H](C(N)=O)NC(=O)[C@H](CC(=O)O)NC1=O [H-CAHAVDC-NH2, H-Cys-Ala-His-Ala-Val-Asp-Cys-NH2] (H-CAHAVDC-NH2; disulfide 1-7) is 1.3

----------
Some compounds, each annotated with its measured EC50.
# study-system: chick N-cadherin (Gallus gallus, UniProt P10288)
# test-protocol: N-cadherin dependent neurite outgrowth of rat cerebellar neurons on N-cadherin expressing 3T3 cells (Example 14)
# condition-details: from dose-response curve
Positions of bridges follow the written chain, without caps; N, C: chain ends. Residues, ends and D or L forms follow the SMILES beside them.

Entry CC(=O)N[C@H]1CSSC[C@@H](C(N)=O)NC(=O)[C@H](C(C)C)NC(=O)[C@H](C)NC(=O)[C@H](Cc2c[nH]cn2)NC1=O ; assay system chick N-cadherin (Gallus gallus, UniProt P10288); EC50 recorded at 220 µM

The recorded EC50 with chick N-cadherin (Gallus gallus, UniProt P10288) for CC[C@H](C)[C@@H]1NC(=O)[C@H](CC(=O)O)NC(=O)[C@H](C(C)C)NC(=O)[C@H](C)NC(=O)[C@H](Cc2c[nH]cn2)NC(=O)[C@@H](NC(C)=O)CSSC[C@@H](C(N)=O)NC1=O [N-Ac-CHAVDIC-NH2] (Ac-CHAVDIC-NH2; disulfide 1-7) was 60 µM

Field EC50 (system: chick N-cadherin (Gallus gallus, UniProt P10288)) for entry CC[C@H](C)[C@@H]1NC(=O)[C@H](CC(=O)O)NC(=O)[C@H](C(C)C)NC(=O)[C@H](C)NC(=O)[C@H](Cc2c[nH]cn2)NC(=O)[C@@H](NC(C)=O)CSSC[C@@H](C(N)=O)NC(=O)[C@H](CC(N)=O)NC1=O (Ac-CHAVDINC-NH2; disulfide 1-8) = 70 µM

Known value: chick N-cadherin (Gallus gallus, UniProt P10288) EC50 of the compound CC(=O)N[C@H]1CSSC[C@@H](C(N)=O)NC(=O)[C@H](CC(=O)O)NC(=O)[C@H](C(C)C)NC(=O)[C@H](C)NC(=O)[C@H](Cc2cnc[nH]2)NC1=O [N-Ac-CHAVDC-NH2] (Ac-CHAVDC-NH2; disulfide 1-6) equals 93 µM

----------
# Test system: MDA-MB231
# Type: cell-based
# condition-details: human
Positions of bridges follow the written chain, without caps; N, C: chain ends. Residues, ends and D or L forms follow the SMILES beside them.
measured-endpoint: IC50

Entry CC(=O)N[C@H]1CCCCNC(=O)C[C@@H](C(N)=O)NC(=O)[C@H](C(C)C)NC(=O)[C@H](C)NC(=O)[C@H](Cc2c[nH]cn2)NC1=O (Ac-KHAVD-NH2; lactam 1-5 (inferred)) ; IC50 = > 100 µM

----------
# inhibition at 250 µg/mL per entry
# study-system: chick N-cadherin (Gallus gallus)
# Construct: expressed in transfected cells; host or cells: 3T3 fibroblasts
# test-protocol: N-cadherin dependent neurite outgrowth of rat cerebellar neurons on N-cadherin expressing 3T3 cells (Example 14)
# Type: cell-based
# condition-details: NIH3T3; 250 μg/mL, 16-18 hours
# Experimental: Cell culture and neurite outgrowth assays. […] The mean length of the longest neurite per cell was measured for 150-200 neurons sampled in replicate cultures as previously described (Williams et al., Neuron 13:583-594, 1994). […] Dose-response curves were evaluated and the EC50 values determined. Effects of cyclic HAV peptides on N-cadherin function. […] The cells were then fixed and the length of the longest neurite on 150-200 neurons was determined by standard assay, as described above. […]
Positions of bridges follow the written chain, without caps; N, C: chain ends. Residues, ends and D or L forms follow the SMILES beside them.
Numeric answer plus unit only.

Some solved cases for reference:
INSERT INTO results (molecule, measured_endpoint, recorded_value) VALUES
  ('CC(=O)N[C@H]1CSSC[C@@H](C(N)=O)NC(=O)[C@H](C(C)C)NC(=O)CNC(=O)[C@H](Cc2c[nH]cn2)NC(=O)[C@H](CO)NC1=O [N-Ac-CSHGVC-NH2, reference compound] (Ac-CSHGVC-NH2; disulfide 1-6)', 'inhibition at 250 µg/mL', '12.5%'),
  ('CC(=O)N[C@H]1CSSC[C@@H](C(N)=O)NC(=O)[C@H](C(C)C)NC(=O)[C@H](C)NC(=O)[C@H](Cc2c[nH]cn2)NC1=O', 'inhibition at 250 µg/mL', '68.2%');

// inhibition at 250 µg/mL value for CC(=O)N[C@H]1CSSC[C@@H](C(N)=O)NC(=O)[C@H](C(C)C)NC(=O)CNC(=O)[C@H](Cc2c[nH]cn2)NC1=O [N-Ac-CHGVC-NH2, reference compound] : 4.8%

Input CC(=O)N[C@H]1CSSC[C@@H](C(N)=O)NC(=O)[C@H](CO)NC(=O)[C@H](C(C)C)NC(=O)[C@H](C)NC(=O)[C@H](Cc2c[nH]cn2)NC1=O [N-Ac-CHAVSC-NH2, N-Ac-Cys-His-Ala-Val-Ser-Cys-NH2] (Ac-CHAVSC-NH2; disulfide 1-6) . Output inhibition at 250 µg/mL: -2.5%

----------
# test-protocol: in vitro
# Format: cell-based
# condition-details: human
Positions of bridges follow the written chain, without caps; N, C: chain ends. Residues, ends and D or L forms follow the SMILES beside them.
Here, each record is paired with measured IC50 data.

Value of measured IC50 for the entry CC(=O)N[C@H]1CSSC[C@@H](C(N)=O)NC(=O)[C@H](C(C)C)NC(=O)CNC(=O)[C@H](Cc2c[nH]cn2)NC(=O)[C@H](CO)NC1=O [N-Ac-CSHGVC-NH2, reference compound] (Ac-CSHGVC-NH2; disulfide 1-6) : > 100 µM

So, CC[C@H](C)[C@@H]1NC(=O)[C@H](CC(=O)O)NC(=O)[C@H](C(C)C)NC(=O)[C@H](C)NC(=O)[C@H](Cc2c[nH]cn2)NC(=O)[C@H](C)NC(=O)[C@@H](NC(C)=O)CSSC[C@@H](C(N)=O)NC1=O (Ac-CAHAVDIC-NH2; disulfide 1-8) ? Its IC50 was > 100 µM
